Tested on: DU145 tumor cells
Assay: MTT growth inhibition of DU145 cells, 72 h
Assay type: cell-based, human
Settings: Table 5; DU145, 72 h, MTT
pIC50: −log10 of the molar value.
Where pIC50 equals or exceeds 5, the correct label is T; where it does not, the label is F.

Some solved entries appear below for comparison.
In [3]: df
Out[3]:
                           structure_string  group_label
0  O=C1C(=C2C(=O)N(Cc3ccccc3)c3ccncc32)Nc2ccc(Br)cc21            T
1    CCN1C(=O)C(=C2Nc3ccccc3C2=NO)c2cnccc21            T

Ask: Does `CCN1C(=O)C(=C2C(=O)Nc3ccc(F)cc32)c2cnccc21` have a reported pIC50 of at least 5?
Result: F

Ask: Does `CC(C)N1C(=O)C(=C2Nc3ccc(Cl)cc3C2=NO)c2cnccc21` have a reported pIC50 of at least 5?
Result: T

Ask: Does `CN1C(=O)C(=C2C(=O)Nc3ccc(F)cc32)c2cnccc21` have a reported pIC50 of at least 5?
Result: F

Ask: Does `CCN1C(=O)C(=C2Nc3ccc(Br)cc3C2=NO)c2cnccc21` have a reported pIC50 of at least 5?
Result: T

Ask: Does `CCN1C(=O)C(=C2Nc3ccc(Cl)cc3C2=NO)c2cnccc21` have a reported pIC50 of at least 5?
Result: T

Ask: Does `CC(C)N1C(=O)C(=C2Nc3ccc(Br)cc3C2=NO)c2cnccc21` have a reported pIC50 of at least 5?
Result: T

Ask: Does `CCCCN1C(=O)C(=C2C(=O)Nc3ccc(F)cc32)c2cnccc21` have a reported pIC50 of at least 5?
Result: F

Ask: Does `CCCCN1C(=O)C(=C2C(=O)Nc3ccc(Br)cc32)c2cnccc21` have a reported pIC50 of at least 5?
Result: F

Ask: Does `CCCCN1C(=O)C(=C2C(=O)Nc3ccccc32)c2cnccc21` have a reported pIC50 of at least 5?
Result: F

Ask: Does `CN1C(=O)C(=C2Nc3ccc(Cl)cc3C2=NO)c2cnccc21` have a reported pIC50 of at least 5?
Result: T

Ask: Does `CC(C)N1C(=O)C(=C2Nc3ccccc3C2=O)c2cnccc21` have a reported pIC50 of at least 5?
Result: F

====

System: DU145 tumor cells
Test: MTT growth inhibition of DU145 cells, 72 h
Type: cell-based, human
Details: Table 5; DU145, 72 h, MTT
Binary call on IC90 with cut-off 40 µM: strictly below means t, and equality or higher means f.

Ask: Would you kindly verify if IC90 of `CCCCN1C(=O)C(=C2C(=O)Nc3ccccc32)c2cnccc21` is strictly less than 40 µM?
Result: f

====

System: mouse melanoma cell line K111
Test: MTT growth inhibition of K111 cells
Type: cell-based
Conditions: Mus musculus, Klll, read-out: IC50 (μM) Tumor cells Klll
EXPERIMENTAL ENDPOINT: IC50 (µM)
Answers are plain numbers, in µM.

Ask: Please give the measured IC50 for this compound: CCN1C(=O)/C(=C2\Nc3ccccc3\C2=N/O)c2cccnc21 [Compound 129]
Result: 4.2

====

System: mouse melanoma cell line K111
Experiment: MTT growth inhibition of K111 cells
Format: cell-based
Details: Klll, read-out: IC50 (μM) Tumor cells Klll
Binary call on IC50 with cut-off 9 µM: strictly below means 1.0, and equality or higher means 0.0.

Some solved entries appear below for comparison.
In [3]: df
Out[3]:
                                   molecule  group_label
0  CNc1cnc2c(c1)C(=C1Nc3ccc(F)cc3C1=O)C(=O)N2Cc1ccccc1          0.0
1  CN1C(=O)C(=C2Nc3ccc(Br)cc3C2=O)c2cccnc21          0.0
2  O=C1C(=C2Nc3ccc(Cl)cc3C2=NO)c2cccnc2N1Cc1ccccc1          0.0
3  CCCCN1C(=O)C(=C2C(=O)Nc3ccc(Br)cc32)c2cccnc21          0.0
4  CC(C)N1C(=O)C(=C2Nc3ccc(Br)cc3C2=NO)c2cccnc21          1.0
5  CC(=O)OCC1OC(N2C(=O)C(=C3C(=O)Nc4ccccc43)c3cc(C)cnc32)C(OC(C)=O)C1OC(C)=O (centres unmarked)          1.0

Ask: Would you kindly verify if IC50 of `O=C1C(=C2C(=O)N(Cc3ccccc3)c3ncccc32)Nc2ccc(Br)cc21` is strictly less than 9 µM?
Result: 0.0

Ask: Would you kindly verify if IC50 of `O=C1Nc2ccc(Br)cc2C1=C1C(=O)N(Cc2ccccc2)c2ncccc21` is strictly less than 9 µM?
Result: 1.0

Ask: Would you kindly verify if IC50 of `CCN1C(=O)C(=C2C(=O)N(CC)c3ncccc32)c2cc(Br)ccc21` is strictly less than 9 µM?
Result: 0.0

Ask: Would you kindly verify if IC50 of `CN1C(=O)C(=C2Nc3ccc(Cl)cc3C2=O)c2cccnc21` is strictly less than 9 µM?
Result: 0.0

Ask: Would you kindly verify if IC50 of `CN1C(=O)C(=C2C(=O)Nc3ccc(F)cc32)c2cccnc21` is strictly less than 9 µM?
Result: 0.0

Ask: Would you kindly verify if IC50 of `CC(C)N1C(=O)C(=C2Nc3ccc(Cl)cc3C2=O)c2cccnc21` is strictly less than 9 µM?
Result: 0.0

Ask: Would you kindly verify if IC50 of `CCN1C(=O)C(=C2Nc3ccc(Br)cc3C2=NO)c2cccnc21` is strictly less than 9 µM?
Result: 1.0

Entry source: patent US8642765B2
